Assay: Phase 1 multiple ascending dose (MAD) study: pharmacokinetics
Format: in vivo, human
Details: human, plasma, oral, 5 mg, Cohort 1, 5 mg BID, Day 1; read-out: Geometric Mean AUCINF_obs
Measurement Label: AUC(0-inf)
Please state the number and follow it with the unit.

Given item `C=CC(=O)N1C[C@H](Nc2ncnc3[nH]cc([C@H]4CC4(F)F)c23)CC[C@@H]1C` , the value recorded as its AUC(0-inf) is 27 ng·h/mL

----------
Assay: Phase 1 multiple ascending dose (MAD) study: pharmacokinetics
Format: in vivo, human
Conditions: human, plasma, oral, 25 mg, Cohort 4, 25 mg BID, Day 15; read-out: Geometric Mean Tmax
Description: Secondary Endpoints—Compound I plasma concentrations and PK parameters: AUC0-tau, AUC0-inf, Ctrough, Cmax, tmax, Kel, t1/2, CLss/F, Vss/F, Rae. Overall Design—This was a randomized, Investigator and participant-blind. Sponsor-unblinded, placebo-controlled study designed to evaluate the safety, tolerability, PK, and PD of Compound I in healthy participants. The study consisted of multiple cohorts assessing ascending doses of Compound I. Approximately 60 participants were enrolled into 5 cohorts. […]
Measurement Label: Tmax (min)
The response must be a number in min with no trailing unit.

The compound identified as C=CC(=O)N1C[C@H](Nc2ncnc3[nH]cc([C@H]4CC4(F)F)c23)CC[C@@H]1C [Compound I] registered its Tmax at 42.6

----------
Assay: Phase 1 multiple ascending dose (MAD) study: pharmacokinetics
Format: in vivo, human
Conditions: human, plasma, oral, 30 mg, Cohort 3a, 30 mg QD, Day 1; read-out: Geometric Mean Cmax
Source text: Secondary Endpoints—Compound I plasma concentrations and PK parameters: AUC0-tau, AUC0-inf, Ctrough, Cmax, tmax, Kel, t1/2, CLss/F, Vss/F, Rae. Overall Design—This was a randomized, Investigator and participant-blind. Sponsor-unblinded, placebo-controlled study designed to evaluate the safety, tolerability, PK, and PD of Compound I in healthy participants. The study consisted of multiple cohorts assessing ascending doses of Compound I. Approximately 60 participants were enrolled into 5 cohorts. […]
Measurement Label: Cmax (ng/mL)
Reply numerically in ng/mL, unit not repeated.

For reference, reported Cmax for `C=CC(=O)N1C[C@H](Nc2ncnc3[nH]cc([C@H]4CC4(F)F)c23)CC[C@@H]1C` stands at 104

----------
Test: Phase 1 multiple ascending dose (MAD) study: pharmacokinetics
Type: in vivo, human
Conditions: human, plasma, oral, 40 mg, Cohort 5, 40 mg BID, Day 1; read-out: Geometric Mean AUC_0-12
Measurement Label: AUC(0-t) (ng·h/mL)
Could you give me the number in ng·h/mL? Just the number is fine.

For reference, reported AUC(0-t) for `C=CC(=O)N1C[C@H](Nc2ncnc3[nH]cc([C@H]4CC4(F)F)c23)CC[C@@H]1C` stands at 285

----------
Experiment: Phase 1 single ascending dose (SAD) study: pharmacokinetics, food effect, formulation bridging
Assay type: in vivo, human
Details: both sexes, human, in vivo, po, 3 mg, single oral dose 3 mg, capsule, fasted
Measurement Label: AUC(0-inf) (ng·h/mL)
Please give a number only; it is taken to be in ng·h/mL.

Item: C=CC(=O)N1C[C@H](Nc2ncnc3[nH]cc([C@H]4CC4(F)F)c23)CC[C@@H]1C [Compound I] | AUC(0-inf): 15.8

----------
Assay: Phase 1 multiple ascending dose (MAD) study: pharmacokinetics
Type: in vivo, human
Settings: human, plasma, oral, 30 mg, Cohort 3a, 30 mg QD, Day 7; read-out: Geometric Mean AUCINF_obs
Measurement Label: AUC(0-inf) (ng·h/mL)
Supply the numeric figure in ng·h/mL, leaving out any unit text.

Record C=CC(=O)N1C[C@H](Nc2ncnc3[nH]cc([C@H]4CC4(F)F)c23)CC[C@@H]1C [Compound I] . Reported AUC(0-inf): 375

----------
Assay: Phase 1 single ascending dose (SAD) study: pharmacokinetics, food effect, formulation bridging
Format: in vivo, human
Conditions: both sexes, human, in vivo, po, 50 mg, single oral dose 50 mg, capsule, fasted
Measurement Label: AUC(0-inf) (ng·h/mL)
Note: unit ng·h/mL is implicit; provide only the numeric part.

response.value for `C=CC(=O)N1C[C@H](Nc2ncnc3[nH]cc([C@H]4CC4(F)F)c23)CC[C@@H]1C` (field: AUC(0-inf)) = 428

----------
Assay: 13 week toxicology and toxicokinetic study in cynomolgus monkeys
Assay type: in vivo, cynomolgus monkey
Conditions: cynomolgus monkey, in vivo, 6 mg/kg, monkey 6 mpk, Day 28; read-out: Cmax
Text: Purpose: Evaluation of toxicity and toxicokinetic (TK) for Compound I, following daily dosing for 13 weeks.
Measurement Label: Cmax (ng/mL)
// note: answer is a bare numeric in ng/mL

Entry under test: `C=CC(=O)N1C[C@H](Nc2ncnc3[nH]cc([C@H]4CC4(F)F)c23)CC[C@@H]1C` . Its Cmax was 985

----------
Experiment: Phase 1 multiple ascending dose (MAD) study: pharmacokinetics
Assay type: in vivo, human
Conditions: human, plasma, oral, 25 mg, Cohort 4, 25 mg BID, Day 1; read-out: Geometric Mean AUC_0-12
Measurement Label: AUC(0-t) (ng·h/mL)
Your answer is read as ng·h/mL, so omit the unit and give the number.

// AUC(0-t) value for C=CC(=O)N1C[C@H](Nc2ncnc3[nH]cc([C@H]4CC4(F)F)c23)CC[C@@H]1C [Compound I] : 173

----------
Assay: Phase 1 single ascending dose (SAD) study: pharmacokinetics, food effect, formulation bridging
Type: in vivo, human
Settings: both sexes, human, in vivo, po, 25 mg, single oral dose 25 mg, tablet; read-out: T1/2 (converted)
Measurement Label: half-life (h)
// units = h; emit number, no label

Reported half-life ( C=CC(=O)N1C[C@H](Nc2ncnc3[nH]cc([C@H]4CC4(F)F)c23)CC[C@@H]1C [Compound I] ) = 1.75

----------
Assay: Phase 1 single ascending dose (SAD) study: pharmacokinetics, food effect, formulation bridging
Assay type: in vivo, human
Conditions: both sexes, human, in vivo, po, 15 mg, single oral dose 15 mg, capsule, fed (high-fat, high-calorie breakfast)
Measurement Label: Cmax (ng/mL)
Numeric answer only, unit ng/mL assumed.

Just so you know, measured Cmax for C=CC(=O)N1C[C@H](Nc2ncnc3[nH]cc([C@H]4CC4(F)F)c23)CC[C@@H]1C [Compound I] came out at 17.6

----------
Experiment: Phase 1 multiple ascending dose (MAD) study: pharmacokinetics
Format: in vivo, human
Conditions: human, plasma, oral, 25 mg, Cohort 4, 25 mg BID, Day 7; read-out: Geometric Mean AUC_0-12
Measurement Label: AUC(0-t) (ng·h/mL)
# number only, unit ng·h/mL dropped from output

Per the record, `C=CC(=O)N1C[C@H](Nc2ncnc3[nH]cc([C@H]4CC4(F)F)c23)CC[C@@H]1C` has AUC(0-t) of 260

----------
Assay: 13 week toxicology and toxicokinetic study in cynomolgus monkeys
Format: in vivo, cynomolgus monkey
Details: cynomolgus monkey, in vivo, 6 mg/kg, monkey 6 mpk, Day 1; read-out: Cmax
Measurement Label: Cmax (ng/mL)
State just the number; it will be interpreted in ng/mL.

Looking up `C=CC(=O)N1C[C@H](Nc2ncnc3[nH]cc([C@H]4CC4(F)F)c23)CC[C@@H]1C` , I found its Cmax recorded as 401

----------
Experiment: Phase 1 single ascending dose (SAD) study: pharmacokinetics, food effect, formulation bridging
Assay type: in vivo, human
Conditions: both sexes, human, in vivo, po, 3 mg, single oral dose 3 mg, capsule, fasted; read-out: AUC0-24
Measurement Label: AUC(0-t) (ng·h/mL)
Lab book: enter the figure in ng·h/mL, no units written.

Input `C=CC(=O)N1C[C@H](Nc2ncnc3[nH]cc([C@H]4CC4(F)F)c23)CC[C@@H]1C` . Output AUC(0-t): 15.4

----------
Test: Phase 1 multiple ascending dose (MAD) study: pharmacokinetics
Format: in vivo, human
Conditions: human, plasma, oral, 40 mg, Cohort 5, 40 mg BID, Day 7; read-out: Geometric Mean AUC_0-12
Measurement Label: AUC(0-t) (ng·h/mL)
Just the number please, in ng·h/mL, no unit attached.

response.value for C=CC(=O)N1C[C@H](Nc2ncnc3[nH]cc([C@H]4CC4(F)F)c23)CC[C@@H]1C [Compound I] (field: AUC(0-t)) = 480

----------
Assay: 13 week toxicology and toxicokinetic study in rats
Assay type: in vivo, rat
Details: in vivo, 80 mg/kg; rat, NOAEL 80 mpk; read-out: AUC0-24 h at NOAEL
Measurement Label: AUC(0-t) (ng·h/mL)
Unit ng·h/mL implied. Number only.

response.value for `C=CC(=O)N1C[C@H](Nc2ncnc3[nH]cc([C@H]4CC4(F)F)c23)CC[C@@H]1C` (field: AUC(0-t)) = 45000

----------
Test: Phase 1 multiple ascending dose (MAD) study: pharmacokinetics
Assay type: in vivo, human
Conditions: human, plasma, oral, 40 mg, Cohort 5, 40 mg BID, Day 7; read-out: Geometric Mean Cmax
Excerpt: Secondary Endpoints—Compound I plasma concentrations and PK parameters: AUC0-tau, AUC0-inf, Ctrough, Cmax, tmax, Kel, t1/2, CLss/F, Vss/F, Rae. Overall Design—This was a randomized, Investigator and participant-blind. Sponsor-unblinded, placebo-controlled study designed to evaluate the safety, tolerability, PK, and PD of Compound I in healthy participants. The study consisted of multiple cohorts assessing ascending doses of Compound I. Approximately 60 participants were enrolled into 5 cohorts. […]
Measurement Label: Cmax (ng/mL)
Report the value in ng/mL with no unit label.

What the record says about `C=CC(=O)N1C[C@H](Nc2ncnc3[nH]cc([C@H]4CC4(F)F)c23)CC[C@@H]1C` : Cmax is 158
